- Test system: HepG2
- Test method notes: Inhibition of lipid accumulation in human HepG2 cells at 20 uM incubated for 24 hrs by Oil Red O staining analysis relative to oleic acid
- Type: functional
Reported metric: inhibition at 20 µM (%)
Give bare numbers, in %.

// below: answered molecules
C/C(=C\C[C@]12C=C[C@@]1(O)C(=O)C=C2C(C)C)CO : 29
C/C(=C\C[C@@]12C=C[C@]1(O)C(=O)C=C2C(C)C)CO : 29
C/C(=C\Cc1ccc(=O)c(O)cc1C(C)C)CO : 29
C/C(=C\CC1=C[C@H]2C(=O)C(O)=C[C@@]12C(C)C)CO : 29

From here, focus on the item given below.
State measured inhibition at 20 µM of the molecule `C/C(=C\CC1=C[C@@H]2C(=O)C(O)=C[C@]12C(C)C)CO` with HepG2.
29

Values compiled from ChEMBL document CHEMBL4842334.
